Target Under Test: ACE-2 (Rattus norvegicus, UniProt Q5EGZ1)
Sequence (Q5EGZ1 18-805): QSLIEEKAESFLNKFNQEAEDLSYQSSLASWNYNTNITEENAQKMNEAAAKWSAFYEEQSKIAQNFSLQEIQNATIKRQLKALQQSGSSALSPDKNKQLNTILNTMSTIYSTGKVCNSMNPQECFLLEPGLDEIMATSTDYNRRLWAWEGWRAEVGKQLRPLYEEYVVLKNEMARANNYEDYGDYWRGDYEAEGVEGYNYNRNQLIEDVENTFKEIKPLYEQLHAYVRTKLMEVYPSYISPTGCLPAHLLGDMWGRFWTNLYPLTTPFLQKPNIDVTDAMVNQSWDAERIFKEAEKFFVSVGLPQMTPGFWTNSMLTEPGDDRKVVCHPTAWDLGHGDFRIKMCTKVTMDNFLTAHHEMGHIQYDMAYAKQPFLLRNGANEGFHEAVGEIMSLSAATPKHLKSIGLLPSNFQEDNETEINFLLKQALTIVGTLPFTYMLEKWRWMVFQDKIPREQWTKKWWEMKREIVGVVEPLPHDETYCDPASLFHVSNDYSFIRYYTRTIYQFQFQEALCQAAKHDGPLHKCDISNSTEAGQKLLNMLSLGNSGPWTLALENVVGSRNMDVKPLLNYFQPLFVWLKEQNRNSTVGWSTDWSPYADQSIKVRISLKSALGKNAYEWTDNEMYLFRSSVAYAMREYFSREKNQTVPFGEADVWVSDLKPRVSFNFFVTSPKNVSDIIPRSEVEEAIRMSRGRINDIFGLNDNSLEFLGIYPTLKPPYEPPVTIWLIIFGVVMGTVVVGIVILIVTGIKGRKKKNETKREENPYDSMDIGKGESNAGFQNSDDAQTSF
Test Details: ACE-2 Competitive Substrate Assay, rat ACE-2
Format: biochemical
Test Context: Ki class; compounds tested in 5% DMSO, 12 concentrations
pKi: −log10 of the molar value.
Endpoint: pKi

CC(C)CC(N[C@@H](Cc1cn(Cc2ccccc2)cn1)C(=O)O)C(=O)O (stereo partly shown) [BV] ... < 6.30
CC(C)CC(N[C@H](Cc1cn(Cc2ccccc2)cn1)C(=O)O)C(=O)O (stereo in doubt) [CW] ... < 6.30
NCCCC[C@H](NC(CCc1ccccc1)C(=O)O)C(=O)O (stereo partly shown) [BU] ... < 6.30

The reported pKi of the molecule CC(C)(C)C[C@H](N[C@@H](C(=O)O)c1ccccc1)C(=O)O [CJ] was < 6.30

For reference, reported pKi for CCCC(N[C@H](Cc1c[nH]cn1)C(=O)O)C(=O)O (stereo partly shown) [BC] stands at < 6.30

According to the records, this molecule CC(C)CC(N[C@@H](Cc1cncn1COCc1ccccc1)C(=O)O)C(=O)O (stereo partly shown) [DX] displays pKi of 6.30 to 7.00
